Test system: Pancreatic acinar cell
Assay: Cytoprotective activity against sodium taurocholate-induced necrosis in Balb/C mouse pancreatic acinar cells at 0.5 mM after 40 mins by propidium iodide/Hoechst 33342 staining-based fluorescence microscopic method
Assay type: functional
Active and inactive are the calls of the source. The calls are words filed in the database; no cut-off is given here.
Give your call using only these classes: active, inactive

Solved cases (3 shown):
• COc1ccc2c(c1O)-c1c(cc(O)cc1OC)CC2 = inactive
• COc1cc(O)cc(CCc2ccc(OC)c(O)c2)c1 = inactive
• Oc1ccc(CC[C@@H](O)C[C@H](O)CCc2ccc(O)cc2)cc1 = active

[Q] # outcome recorded in this test, key = `COc1cc(CC[C@@H](O)C[C@H](O)CCc2ccc(O)c(OC)c2)ccc1O`
[A] active

[Q] # outcome recorded in this test, key = `COc1cc(CC[C@@H](O)C[C@H](O)CCc2ccc(O)cc2)ccc1O`
[A] active

[Q] # outcome recorded in this test, key = `COc1ccc(CCc2cc(O)c(OC)c(O)c2)cc1`
[A] inactive

[Q] # outcome recorded in this test, key = `COc1c(O)cc(CCc2ccccc2)cc1O`
[A] inactive
